# target-or-system: NS3 protease domain complexed to a modified form of the NS4A peptide (Pep4AK) (Hepatitis C virus genotype 1b)
# Construct: NS3 protease domain (residues 1027–1206 of the HCV polyprotein)
# method-summary: HCV NS3 protease domain/NS4A cofactor peptide assay (Assay B)
# Assay type: biochemical
# assay-setup: NS3 protease domain/NS4A cofactor peptide assay; read-out: Assay B (IC50 class)
pIC50: −log10 of the molar value.
Known pIC50 of a selection of compounds

A selection of reference data follows.
{"compound": "CC(C)CC(NC(=O)c1ccccc1-c1ccccc1C(=O)O)C(=O)NC(CC(F)F)C(=O)NCCc1cccc(NCC(=O)O)c1 (stereo not shown) [Compound 720]", "pIC50": "> 4.00"}
{"compound": "CCOC(=O)CNc1cccc(CCNC(=O)C(CC(F)F)NC(=O)C(CC(C)C)NC(=O)c2ccccc2-c2ccccc2C(=O)O)c1 (stereo not shown) [Compound 721]", "pIC50": "> 4.00"}
{"compound": "CC(C)CC(NC(=O)c1ccccc1-c1ccccc1C(=O)O)C(=O)NC(CC(F)F)C(=O)NCCc1c(F)cc(C(=O)O)cc1F (stereo not shown) [Compound 718]", "pIC50": "> 4.00"}

Supply measured pIC50 of CC(C)C[C@H](NC(=O)C1(Cc2ccsc2C(=O)O)Cc2ccccc2N1)C(=O)N[C@@H](CC(F)F)C(=O)NCCc1c(F)cc(C(=O)O)cc1F (single isomer, unassigned) [Compound 708b] in your reply. > 5.00

* * *

# target-or-system: NS3 protease domain complexed to a modified form of the NS4A peptide (Pep4AK) (Hepatitis C virus genotype 1b)
# Construct: NS3 protease domain (residues 1027–1206 of the HCV polyprotein)
# method-summary: HCV NS3 protease domain/NS4A cofactor peptide assay (Assay B)
# Format: biochemical
# assay-setup: Table 1; NS3 protease domain/Pep4AK, 4AB peptide substrate; read-out: Assay B
pIC50: −log10 of the molar value.
value-kind: pIC50

Some solved entries appear below for comparison.
{"compound": "CC(C)COC(=O)NC(CCC(=O)O)C(=O)NC(CC(C)C)C(=O)NC(CS)C(=O)NCCc1cccc(C(F)(F)F)c1 (stereo not drawn)", "pIC50": "> 4.00"}
{"compound": "CC(C)COC(=O)N[C@@H](CCC(=O)O)C(=O)N[C@@H](CC(C)C)C(=O)N[C@@H](CS)C(=O)NCC(O)c1ccccc1 (mixture of isomers)", "pIC50": "> 4.00"}
{"compound": "CC(C)COC(=O)N[C@@H](CCC(=O)O)C(=O)N[C@@H](CC(C)C)C(=O)N[C@@H](CS)C(=O)NCCc1ccc(Cl)cc1Cl", "pIC50": "> 5.00"}
{"compound": "CC(C)COC(=O)NC(CCC(=O)O)C(=O)NC(CC(C)C)C(=O)NC(CS)C(=O)NCCc1ccccc1Br (stereo not drawn)", "pIC50": "> 4.00"}
{"compound": "CC(C)COC(=O)NC(CCC(=O)O)C(=O)NC(CC(C)C)C(=O)NC(CS)C(=O)NCCc1ccc([N+](=O)[O-])cc1 (stereo not drawn)", "pIC50": "> 4.00"}

Pending compound:
Name the recorded pIC50 of the compound listed here: CC(C)COC(=O)NC(CCC(=O)O)C(=O)NC(CC(C)C)C(=O)NC(CS)C(=O)NCCc1ccccc1Cl (stereo not drawn) > 4.00

* * *

# target-or-system: NS3 protease domain complexed to a modified form of the NS4A peptide (Pep4AK) (Hepatitis C virus genotype 1b, UniProt P26663)
# Construct: NS3 protease domain (residues 1027–1206 of the HCV polyprotein)
# method-summary: HCV NS3 protease domain/NS4A cofactor peptide assay (Assay B)
# Type: biochemical
# assay-setup: Table 1; NS3 protease domain/Pep4AK, 4AB peptide substrate; read-out: Assay B
pIC50: −log10 of the molar value. Where a SMILES comes first, the peptide text is derived from it. The star is where a group is joined. NHPhenethyl = c1ccc(CCN*)cc1; Boc = CC(C)(C)OC(=O)*
value-kind: pIC50

Field: example entries. Status: answers known.
{"molecule": "COc1ccc(Br)cc1CCNC(=O)C(CS)NC(=O)C(CC(C)C)NC(=O)C(CCC(=O)O)NC(=O)OCC(C)C (centres unmarked)", "pIC50": "> 5.00"}
{"molecule": "CC(C)CC(NC(=O)C(CCC(=O)O)NC(=O)OC(C)(C)C)C(=O)NC(CS)C(=O)NCCc1ccccc1 (stereo not drawn) [Compound 103] (Boc-Glu-Leu-Cys-NHPhenethyl; configuration not given here)", "pIC50": "> 4.00"}
{"molecule": "CC(C)COC(=O)N[C@@H](CCC(=O)O)C(=O)N[C@@H](CC(C)C)C(=O)N[C@@H](CS)C(=O)NCCc1cn(CC(=O)O)c2ccccc12", "pIC50": "> 5.00"}
{"molecule": "COC(=O)c1ccccc1CCNC(=O)C(CS)NC(=O)C(CC(C)C)NC(=O)C(CCC(=O)O)NC(=O)OCC(C)C (centres unmarked)", "pIC50": "> 4.00"}

Attention now turns to another entry.
Note down pIC50 recorded for CC(C)COC(=O)NC(CCC(=O)O)C(=O)NC(CC(C)C)C(=O)NC(CS)C(=O)NCCc1ccc(Oc2ccccc2)cc1 (centres unmarked) > 4.00

* * *

# target-or-system: full length NS3 protein noncovalently complexed with the full-length NS4A cofactor protein (NS3/NS4A complex) (Hepatitis C virus genotype 1b, UniProt P26663)
# Construct: full length NS3 protein spanning residues 1027–1657 of the HCV polyprotein
# Sequence (P26663 1027-1657): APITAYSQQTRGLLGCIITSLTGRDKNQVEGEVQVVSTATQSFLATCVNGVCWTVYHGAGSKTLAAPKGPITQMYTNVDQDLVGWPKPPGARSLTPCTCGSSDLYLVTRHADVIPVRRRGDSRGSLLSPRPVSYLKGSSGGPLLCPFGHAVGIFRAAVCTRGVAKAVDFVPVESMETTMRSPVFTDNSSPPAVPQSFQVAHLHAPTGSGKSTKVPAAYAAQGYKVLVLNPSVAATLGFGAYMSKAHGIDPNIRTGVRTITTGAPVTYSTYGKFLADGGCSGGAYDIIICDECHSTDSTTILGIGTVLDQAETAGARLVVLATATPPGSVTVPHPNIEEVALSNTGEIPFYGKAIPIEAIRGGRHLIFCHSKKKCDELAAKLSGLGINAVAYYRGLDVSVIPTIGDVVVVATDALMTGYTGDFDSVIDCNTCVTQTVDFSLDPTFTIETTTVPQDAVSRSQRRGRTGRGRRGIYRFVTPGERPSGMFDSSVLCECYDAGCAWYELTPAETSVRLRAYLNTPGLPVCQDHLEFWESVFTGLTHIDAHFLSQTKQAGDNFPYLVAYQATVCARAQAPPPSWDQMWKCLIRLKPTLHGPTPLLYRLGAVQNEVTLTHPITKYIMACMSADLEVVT
# Sequence (P26663 1658-1711): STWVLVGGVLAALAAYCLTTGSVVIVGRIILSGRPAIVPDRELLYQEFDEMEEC
# method-summary: Full-length NS3-NS4A heterodimer protein assay (Assay A)
# Format: biochemical, hepatitis C virus (HCV)
# assay-setup: Table 5; full-length NS3/NS4A; read-out: AssayA
value-kind: IC50

Look over these answered cases.
{"mol": "CC(C)[C@H](NC(=O)OCC1CCCC1)C(=O)N1C[C@H](C2CCCCC2)C[C@H]1C(=O)N[C@@H](CC(F)F)C(=O)NCCc1c(F)cc(C(=O)O)cc1F", "experimental-result": "< 10 µM"}
{"mol": "CCCS[C@@H]1C[C@@H](C(=O)N[C@@H](CC(F)F)C(=O)NCCc2c(F)cc(C(=O)O)cc2F)N(C(=O)[C@@H](NC(=O)OCC(C)C)C(C)C)C1", "experimental-result": "< 1 µM"}

# next compound below
Identify IC50 associated with the compound CC(C)COC(=O)N[C@H](C(=O)N1C[C@H](c2ccccc2)C[C@H]1C(=O)N[C@@H](CC(F)F)C(=O)NCCc1c[nH]c2ccccc12)C(C)C < 100 µM

* * *

Listed molecules paired with reported IC50
# target-or-system: NS3 protease domain complexed to a modified form of the NS4A peptide (Pep4AK) (Hepatitis C virus genotype 1b, UniProt P26663)
# Construct: NS3 protease domain (residues 1027–1206 of the HCV polyprotein)
# method-summary: HCV NS3 protease domain/NS4A cofactor peptide assay (Assay B)
# Type: biochemical
# assay-setup: NS3 protease domain/NS4A cofactor peptide assay; read-out: Assay B (IC50 class)

The following molecules have reported results that may help.
{"molecule": "CC(C)C[C@H](NC(=O)C1(Cc2ccsc2C(=O)O)Cc2ccccc2N1)C(=O)N[C@@H](CC(F)F)C(=O)NCCc1cccc(/C=C/C(=O)O)c1 (single isomer, unassigned) [Compound 706]", "IC50": "< 10 µM"}
{"molecule": "CC(C)C[C@H](NC(=O)C1(Cc2ccc(C(=O)O)s2)Cc2ccccc2N1)C(=O)N[C@@H](CS)C(=O)NCCc1ccc(C(=O)O)cc1 (mixture of isomers) [Compound 703]", "IC50": "< 100 µM"}

Please indicate IC50 recorded for CC(C)C[C@H](NC(=O)C1(Cc2ccsc2C(=O)O)CCc2ccccc2N1)C(=O)N[C@@H](CC(F)F)C(=O)NCCc1cccc(/C=C/C(=O)O)c1 (single isomer, unassigned) [Compound 714] < 100 µM

* * *

# target-or-system: NS3 protease domain complexed to a modified form of the NS4A peptide (Pep4AK) (Hepatitis C virus genotype 1b)
# Construct: NS3 protease domain (residues 1027–1206 of the HCV polyprotein)
# method-summary: HCV NS3 protease domain/NS4A cofactor peptide assay (Assay B)
# Assay type: biochemical
# assay-setup: Table 1; NS3 protease domain/Pep4AK, 4AB peptide substrate; read-out: Assay B
pIC50: −log10 of the molar value.
value-kind: pIC50

{"compound": "CC(C)COC(=O)N[C@@H](CCC(=O)O)C(=O)N[C@@H](CC(C)C)C(=O)N[C@@H](CS)C(=O)NCCc1cccc(/C=C/C(=O)O)c1 [Compound 134]", "pIC50": "> 5.00"}

Item CC(C)COC(=O)NC(CCC(=O)O)C(=O)NC(CC(C)C)C(=O)NC(CS)C(=O)NCCc1ccc(S(N)(=O)=O)cc1 (centres unmarked) [Compound 159] : provide pIC50 > 5.00

* * *

# Lookup of reported IC50 keyed by entry
# target-or-system: full length NS3 protein noncovalently complexed with the full-length NS4A cofactor protein (NS3/NS4A complex) (Hepatitis C virus genotype 1b)
# Construct: full length NS3 protein spanning residues 1027–1657 of the HCV polyprotein
# method-summary: Full-length NS3-NS4A heterodimer protein assay (Assay A)
# Type: biochemical, hepatitis C virus (HCV)
# assay-setup: Table 5; full-length NS3/NS4A; read-out: AssayA

Respond only with IC50 recorded for CC[C@H](C)[C@H](NC(=O)OCC(C)C)C(=O)N1C[C@H](c2ccccc2)C[C@H]1C(=O)N[C@@H](CC(F)F)C(=O)NCCc1c(F)cc(C(=O)O)cc1F < 10 µM

# return recorded IC50 for entry CC(C)COC(=O)N[C@@H](CCC(=O)O)C(=O)N1C[C@H](c2ccccc2)C[C@H]1C(=O)N[C@@H](CS)C(=O)NCCc1ccc(C(=O)O)cc1Cl < 10 µM

Using the record for O=C(O)CC[C@H](NS(=O)(=O)c1cccc2ccccc12)C(=O)N1C[C@H](c2ccccc2)C[C@H]1C(=O)N[C@@H](CS)C(=O)NCCc1ccc(C(=O)O)cc1 , state its measured IC50. < 100 µM

Note down IC50 recorded for CC(C)COC(=O)N[C@H](C(=O)N1C[C@H](c2ccccc2)C[C@H]1C(=O)N[C@@H](CC(F)F)C(=O)NCCc1c(F)cc(C(=O)O)cc1F)C(C)(C)C < 10 µM

Identify measured IC50 associated with CCC(Nc1cccc(CCNC(=O)[C@H](CC(F)F)NC(=O)[C@@H]2C[C@@H](c3ccccc3)CN2C(=O)[C@@H](NC(=O)OCC(C)C)C(C)C)c1)C(=O)O (mixture of isomers) < 10 µM

Let me know recorded IC50 for COC(=O)c1ccc(CCNC(=O)[C@H](CS)NC(=O)[C@@H]2C[C@@H](c3ccccc3)CN2C(=O)[C@H](CCC(=O)O)NS(=O)(=O)c2cccc3ccccc23)cc1 , thanks. < 100 µM

Please report the measured IC50 for CC(C)COC(=O)N[C@H](C(=O)N1C[C@H](OCc2ccc(C(=O)O)cc2)C[C@H]1C(=O)N[C@@H](CC(F)F)C(=O)NCCc1c(Cl)cccc1Cl)C(C)C < 100 µM

Note down IC50 recorded for CC(C)COC(=O)NC(CCC(=O)O)C(=O)N1CCCC1C(=O)NC(CS)C(=O)NCCc1ccccc1Cl (stereo not shown) < 100 µM

Entry COc1cccc(S[C@@H]2C[C@@H](C(=O)N[C@@H](CC(F)F)C(=O)NCCc3c(F)cc(C(=O)O)cc3F)N(C(=O)[C@@H](NC(=O)OCC(C)C)C(C)C)C2)c1 needs its IC50 filled in; supply it. < 1 µM

Provide one value: measured IC50 of CC(C)COC(=O)N[C@H](C(=O)N1C[C@H](C2CCCCC2)C[C@H]1C(=O)N[C@@H](CC(F)F)C(=O)NCCc1c(F)ccc(OCC(=O)O)c1F)C(C)C < 1 µM
